Answer each item with its documented TGI.
- Test system: M14 melanoma
- procedure.text: NCI tumour cell line growth inhibition, 48 h

Tell me its TGI given "CCCCOC(=O)NC(=O)c1cn(CCCOC(=O)CCCCCCCCC(=O)OCCCn2cc(C(=O)NC(=O)OCCCC)c(=O)[nH]c2=O)c(=O)[nH]c1=O" as the entry. > 100 µM

Tell me its TGI given COC(=O)C(Cc1cn(C(C)=O)c2ccccc12)P(=O)(OC)OC (centres undefined) as the entry. > 100 µM

Tell me its TGI given C=CCC(N[C@H](CO)c1ccccc1)c1ccc2ccccc2n1 (some centres undefined) as the entry. > 100 µM

Tell me its TGI given "O=C(c1cc(Cl)cc(Cl)c1)N(C(=O)N1CCN(c2ccccc2)CC1)c1ccccc1" as the entry. > 100 µM

====

- System: NCI/ADR-RES ovarian
- procedure.text: NCI tumour cell line growth inhibition, 48 h
Answer each item with its documented TGI.

Tell me its TGI given "COc1ccc2c(c1)/C(=C\c1c(C)nc3n1CCS3)C(=O)N2" as the entry. > 100 µM

Tell me its TGI given CCC(Sc1cc(Cl)c(C)cc1S(=O)(=O)Nc1nc(N)nc(N(C)C)n1)C(=O)O (stereo not given) as the entry. > 10 µM

Tell me its TGI given "Cc1csc2nc3c(cnn3C)c(=S)n12" as the entry. > 100 µM

Tell me its TGI given "CC(=O)c1c(C)[nH]c(-c2nc3ccc(N4CCN(C)CC4)cc3[nH]2)c1-c1ccc(OCC2CCOCC2)cc1" as the entry. 30.5 µM

Tell me its TGI given "COc1cc(OCc2ccc3nc(-c4ccccc4)c(Cl)nc3c2)cc(OC)c1OC" as the entry. > 100 µM

Tell me its TGI given CC(=O)O[C@@H]1CC[C@@]2(C)C(CC[C@H]3[C@@H]4CC[C@H]([C@H](C)CCc5nc6ccc(C)cc6[nH]5)[C@@]4(C)CC[C@@H]32)C1 (stereo not given in full) as the entry. > 100 µM

Tell me its TGI given CC1(C)C2CCC3=C(CCC4(C)C5C[C@](C)(C(=O)O)CC[C@]5(C)CC[C@]34C)[C@@]2(C)CC[C@@H]1O (stereo not given in full) as the entry. 36 µM

Tell me its TGI given "CC(C)(C#N)c1cc(Cn2cncn2)cc(C(C)(C)C#N)c1" as the entry. > 10000 µM

Tell me its TGI given "Nc1nc(N)c2cc(Sc3ccc4nc(N)nc(N)c4c3)ccc2n1" as the entry. > 100 µM

Tell me its TGI given C=CCC(N[C@H](CO)c1ccccc1)c1ccc2ccccc2n1 (stereo not given in full) as the entry. > 100 µM

Tell me its TGI given COC(=O)C1=C(O)C(C(=O)OC)[C@]2(O)[C@H](C(=O)OC)[C@H]1C[C@@H](c1ccc(F)cc1)[C@H]2C(=O)OC (stereo not given in full) as the entry. 36.8 µM

Tell me its TGI given CCOC(=O)C(SCCO)C(C(=O)OCC)n1cnc2c(N)ncnc21 (stereo not given) as the entry. 56.7 µM

Tell me its TGI given COc1ccc(/C=C2\CCC(CNc3cc(C)on3)C2=O)cc1 (stereo not given) as the entry. > 100 µM

Tell me its TGI given "CCN(CC)C(=C(C(Cl)=C(Cl)Cl)[N+](=O)[O-])N(CC)CC" as the entry. > 100 µM

Tell me its TGI given "O=C1C(=O)c2c(oc(=O)c3ccccc23)-c2ccccc21" as the entry. > 25 µM

Tell me its TGI given "COC(=O)c1cc2c(cc1Cl)SC(N(N(C)C)S(=O)(=O)c1ccc(Br)s1)=NS2(=O)=O" as the entry. 59.9 µM

Tell me its TGI given "O=c1c(Oc2ccc(F)cc2F)cc2cnc(NC3CCOCC3)nc2n1C1CCS(=O)(=O)CC1" as the entry. > 25 µM

Tell me its TGI given O=C(c1ccccc1)c1ccc2nc3n(c2c1)C(c1c(F)cccc1F)SC3 (stereo not given) as the entry. 26.5 µM

Tell me its TGI given CC12OC(c3ccccc3)=CC(c3ccc(Cl)cc3)=C1C(c1ccccc1)=CC2=O (stereo not given) as the entry. > 100 µM

Tell me its TGI given "CC(=O)C(=[N+]=[N-])C(=O)NCC#N" as the entry. > 10 µM

====

- Tested on: MDA-MB-231 breast
- procedure.text: NCI tumour cell line growth inhibition, 48 h
metric.name: TGI (µM)
Field format: number, assumed µM, no unit text.

Tell me its TGI given CC1(C)C2CCC3=C(CCC4(C)C5C[C@](C)(C(=O)O)CC[C@]5(C)CC[C@]34C)[C@@]2(C)CC[C@@H]1O (some centres undefined) as the entry. 33.8

Tell me its TGI given "COc1cc(/C=C/C(=O)CC(=O)/C=C/c2cc(OC)c(OC)c(OC)c2)cc(OC)c1OC" as the entry. 9.12

Tell me its TGI given "Cc1cc(C)nc(NS(=O)(=O)c2ccc(NNc3c4ccccc4nc4c(C(=O)Nc5ccc(S(=O)(=O)Nc6ncccn6)cc5)cccc34)cc2)n1" as the entry. 65.3

Tell me its TGI given CC(=O)O[C@@H]1CC[C@@]2(C)C(CC[C@H]3[C@@H]4CC[C@H]([C@H](C)CCc5nc6ccc(C)cc6[nH]5)[C@@]4(C)CC[C@@H]32)C1 (some centres undefined) as the entry. 55.3

====

- Test system: SK-MEL-2 melanoma
- procedure.text: NCI tumour cell line growth inhibition, 48 h
Answer each item with its documented TGI.

Report value only: TGI, SK-MEL-2 melanoma, CCN(CC)CCCC(C)Nc1c2ccc(Cl)cc2nc2ccc(OC)cc12 (centres undefined) 3.17 µM

Report value only: TGI, SK-MEL-2 melanoma, COc1cc(S(=O)(=O)Nc2nc(-c3ccc(N4C(=O)CSC4c4cccs4)cc3)cs2)ccc1Cl (centres undefined) > 100 µM

Report value only: TGI, SK-MEL-2 melanoma, "C=C(Cl)c1c(OC)cccc1OCc1ccccc1" > 100 µM

Report value only: TGI, SK-MEL-2 melanoma, "CC[C@](O)(CC(=O)O[C@H]1C(=O)O[C@@H]2C[C@H]3C(C)=CC(=O)[C@@H](O)[C@]3(C)[C@H]3[C@@]4(O)OC[C@]32[C@@H]1[C@@H](C)[C@H]4O)C(C)C" < 0.01 µM

Report value only: TGI, SK-MEL-2 melanoma, "O=C1c2cccc3cc([N+](=O)[O-])cc(c23)C(=O)N1CCCN1CCN(CCCNc2ccc3ncn4c5ccccc5c(=O)c2c34)CC1" > 29 µM

Report value only: TGI, SK-MEL-2 melanoma, "COc1ccc2nc3c([N+](=O)[O-])ccc4c3c(c2c1)N=CN4CCCN(C)C" 22.8 µM

Report value only: TGI, SK-MEL-2 melanoma, CSc1ccc(C2=NN(C(=O)c3ccc(F)cc3)C(c3ccc(F)cc3)C2)cc1 (centres undefined) 34.6 µM

Report value only: TGI, SK-MEL-2 melanoma, "Cc1csc2nc3c(cnn3C)c(=S)n12" > 100 µM

Report value only: TGI, SK-MEL-2 melanoma, "O=C(O)c1ccc(P(=O)(O)c2ccc(C(=O)O)cc2Br)c(Br)c1" > 100 µM

Report value only: TGI, SK-MEL-2 melanoma, "Cc1cc([C@H](C#N)c2nc3ccccc3[nH]2)nc(Cl)n1" > 100 µM

Report value only: TGI, SK-MEL-2 melanoma, "N#CC(C#N)N=Cc1ccncc1" > 100 µM

Report value only: TGI, SK-MEL-2 melanoma, "CN1CCC2(CC1)SC[C@H]1C(=O)N(c3ccc(Cl)cc3)C(=O)N12" > 100 µM

Report value only: TGI, SK-MEL-2 melanoma, "O=[N+]([O-])c1cc(Cl)c(Cl)c([N+](=O)[O-])c1Cl" 3.37 µM

Report value only: TGI, SK-MEL-2 melanoma, CCC(C)C(C(=O)N/N=C1/SCC(=O)N1c1ccccc1)C(=O)N/N=C1/SCC(=O)N1c1ccccc1 (centres undefined) 83.1 µM

Report value only: TGI, SK-MEL-2 melanoma, "COc1cc2c(cc1OCCCOc1cc3c(cc1OC)C(=O)N1C[C@H](F)C[C@H]1C=N3)N=C[C@@H]1C[C@@H](F)CN1C2=O" 5.71 µM

Report value only: TGI, SK-MEL-2 melanoma, "CC(=O)c1c(C)[nH]c(-c2nc3ccc(N4CCN(C)CC4)cc3[nH]2)c1-c1ccc(OCC2CCOCC2)cc1" 16.5 µM

Report value only: TGI, SK-MEL-2 melanoma, "O=c1[nH]n(Cc2ccccc2Cl)c2ccc([N+](=O)[O-])cc12" > 100 µM

Report value only: TGI, SK-MEL-2 melanoma, CC(O)c1cccc(NCc2c3ccccc3c(=O)n3c2oc2ccccc23)c1 (centres undefined) 46.9 µM

Report value only: TGI, SK-MEL-2 melanoma, "O=C1C(=O)c2c(oc(=O)c3ccccc23)-c2ccccc21" > 25 µM

Report value only: TGI, SK-MEL-2 melanoma, COc1cc(OC)cc(C2CC(=O)Nc3c2c(C)nn3-c2nc3ccccc3[nH]2)c1 (centres undefined) 5.88 µM

Report value only: TGI, SK-MEL-2 melanoma, "COC(=O)c1cc2c(cc1Cl)SC(N(N(C)C)S(=O)(=O)c1ccc(Br)s1)=NS2(=O)=O" 9.66 µM

Report value only: TGI, SK-MEL-2 melanoma, CC(=O)O[C@@H]1CC[C@@]2(C)C(CC[C@H]3[C@@H]4CC[C@H]([C@H](C)CCc5nc6ccc(C)cc6[nH]5)[C@@]4(C)CC[C@@H]32)C1 (some centres undefined) > 100 µM

Report value only: TGI, SK-MEL-2 melanoma, "O=C(Nc1ccc(Cl)cc1Cl)C(=O)Nn1c(=S)[nH]c2ccccc2c1=O" > 100 µM

Report value only: TGI, SK-MEL-2 melanoma, COC(=O)CCc1cc(OC)c2c(c1)C(C(=O)OC)C(c1ccc(OC)c(OC)c1)O2 (centres undefined) > 100 µM

Report value only: TGI, SK-MEL-2 melanoma, "COC(=O)c1s/c(=N\C(=S)N(C)C)n(-c2ccccc2)c1C(=O)OC" > 100 µM

Report value only: TGI, SK-MEL-2 melanoma, O=C1c2ccccc2C(O)(C(=O)O)C1(O)CC=C(Cl)Cl (centres undefined) > 125 µM

Report value only: TGI, SK-MEL-2 melanoma, "COc1ccc2c(c1)/C(=C\c1c(C)nc3n1CCS3)C(=O)N2" > 100 µM

Report value only: TGI, SK-MEL-2 melanoma, "O=c1[nH]c(C23CC4CC(CC(C4)C2)C3)cc2c1c(=O)oc1ccccc12" 38.7 µM

Report value only: TGI, SK-MEL-2 melanoma, "CCCCOC(=O)NC(=O)c1cn(CCCOC(=O)CCCCCCCCC(=O)OCCCn2cc(C(=O)NC(=O)OCCCC)c(=O)[nH]c2=O)c(=O)[nH]c1=O" > 100 µM

Report value only: TGI, SK-MEL-2 melanoma, "COc1cc(/C=C/C(=O)CC(=O)/C=C/c2cc(OC)c(OC)c(OC)c2)cc(OC)c1OC" 78.8 µM

Report value only: TGI, SK-MEL-2 melanoma, "COc1cc(OC)c(/C=C/S(=O)(=O)Cc2cnc(OC)c(N)c2)c(OC)c1" > 100 µM

Report value only: TGI, SK-MEL-2 melanoma, c1ccc2c(c1)CCC/C2=N\OCC1CO1 (centres undefined) > 100 µM

Report value only: TGI, SK-MEL-2 melanoma, "Cc1c(NC(=O)C(C)(C)Br)c(=O)oc2c(C)c3occc(=O)c3cc12" > 100 µM

Report value only: TGI, SK-MEL-2 melanoma, CC(C)=CCCC(C)c1ccc(C)c2c1OCN(CC1CCNCC1)C2 (centres undefined) 35.5 µM

Report value only: TGI, SK-MEL-2 melanoma, "COc1cc(/C=C(\C#N)C(=O)c2ccccc2)ccc1OCc1ccccc1" > 100 µM

Report value only: TGI, SK-MEL-2 melanoma, C=C1C(=O)C23CC1C[C@H](OC(C)=O)[C@H]2C1(C)C(OC(C)=O)C[C@H](O)C(C)(C)[C@H]1C(=O)[C@@H]3OC(C)=O (some centres undefined) 25.9 µM

Report value only: TGI, SK-MEL-2 melanoma, "O=[N+]([O-])c1cccc(/C=N\NS(=O)(=O)c2ccc(Cl)cc2)c1O" > 100 µM

Report value only: TGI, SK-MEL-2 melanoma, "COc1ccccc1N1C(=O)/C(=C/c2ccc(N(CCC#N)CCC#N)cc2C)N=C1c1cc([N+](=O)[O-])ccc1Cl" > 100 µM

Report value only: TGI, SK-MEL-2 melanoma, "CN(C)c1ccc(/C=N\NC(=O)c2ccccc2Nc2ccccc2C(=O)N/N=C/c2ccc(N(C)C)cc2)cc1" > 100 µM
